# experimental.system: pT7_6His-AlfaTag-HOXD13 (human, UniProt P35453 263-343)
# Sequence (P35453 263-343): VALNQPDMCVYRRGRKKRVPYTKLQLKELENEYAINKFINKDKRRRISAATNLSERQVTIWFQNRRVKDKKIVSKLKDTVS
# protocol.summary: PADIT-seq
# test.parameters: dsDNA, one strand shown
binding signal strictly under 1 log2FC means T; at 1 log2FC or over means F.

Worked cases, answers included:
{"seq.text": "CTCGAGGATATCAAGATCTGGCCTCGGCGCGAAGGCGGGAACCTCTAGCTAGCCGACTCACTATAGGGATAATCGCCCTGAGCAAAGACC", "answer.label": "T"}
{"seq.text": "CTCGAGGATATCAAGATCTGGCCTCGGCTACATAAAAGGAACCTCTAGCTAGCCGACTCACTATAGGGATAATCGCCCTGAGCAAAGACC", "answer.label": "F"}
{"seq.text": "CTCGAGGATATCAAGATCTGGCCTCGGCATTTTAGGGGGAACCTCTAGCTAGCCGACTCACTATAGGGATAATCGCCCTGAGCAAAGACC", "answer.label": "F"}
{"seq.text": "CTCGAGGATATCAAGATCTGGCCTCGGCATTTTATCCGGAACCTCTAGCTAGCCGACTCACTATAGGGATAATCGCCCTGAGCAAAGACC", "answer.label": "F"}
{"seq.text": "CTCGAGGATATCAAGATCTGGCCTCGGCGAGTGGGCGGGAACCTCTAGCTAGCCGACTCACTATAGGGATAATCGCCCTGAGCAAAGACC", "answer.label": "T"}
{"seq.text": "CTCGAGGATATCAAGATCTGGCCTCGGCATGGTAAAAGGAACCTCTAGCTAGCCGACTCACTATAGGGATAATCGCCCTGAGCAAAGACC", "answer.label": "F"}

*Q* Lab note: confirm whether the reported binding signal for this sequence is below 1 log2FC, equality not counting. sequence: CTCGAGGATATCAAGATCTGGCCTCGGCCTTTTACACGGAACCTCTAGCTAGCCGACTCACTATAGGGATAATCGCCCTGAGCAAAGACC
*A* F
